# TARGET OR TEST SYSTEM: HLA-B*27:03
# PROCEDURE TEXT: IEDB peptide-MHC binding, purified MHC/competitive/fluorescence; filed as Kd, often an IC50 or EC50 that approximates it; bounds were set here for any values at or beyond the usual limits of such assays
# COND: source organism: Yersinia mollaretii ATCC 43969
pKd: −log10 of the molar value.
ENDPOINT NAME: pKd

stdin: Data request, read-out pKd, for MMWIPGWFG
stdout: ≤ 4.70

----------
Attribute: pKd
# TARGET OR TEST SYSTEM: HLA-A*24:02
# PROCEDURE TEXT: IEDB peptide-MHC binding, purified MHC/competitive/radioactivity; filed as Kd, often an IC50 or EC50 that approximates it; bounds were set here for any values at or beyond the usual limits of such assays
# COND: source organism: Dengue virus 4 Philippines/H241/1956
To interpret pKd, take it as minus log10 of a concentration measured in moles per litre.

Reference set (2 entries):
>  <SEQUENCE DATA>
YYMATLKNV

>  <TEST RESULT>
7.13

$$$$
>  <SEQUENCE DATA>
AWRTIMAVLF

>  <TEST RESULT>
7.66

$$$$

stdin: Which pKd is reported with HLA-A*24:02 for this entry: TWAFCEVLTL ?
stdout: 5.65

----------
# TARGET OR TEST SYSTEM: HLA-B*44:02
# PROCEDURE TEXT: IEDB peptide-MHC binding, purified MHC/competitive/radioactivity; filed as Kd, often an IC50 or EC50 that approximates it; bounds were set here for any values at or beyond the usual limits of such assays
# COND: source organism: SARS coronavirus Tor2
In plain terms, low Kd, meaning strictly below 90 nM, gives Satisfied, and everything else gives Not satisfied.

Previously resolved entries follow.
>  <SEQUENCE DATA>
VEYPIIGDEL

>  <TARGET OR TEST SYSTEM>
HLA-B*44:02

>  <CLASSIFICATION>
Not satisfied

$$$$
>  <SEQUENCE DATA>
TERLKLFAA

>  <TARGET OR TEST SYSTEM>
HLA-B*44:02

>  <CLASSIFICATION>
Not satisfied

$$$$
>  <SEQUENCE DATA>
SEMVMCGGSL

>  <TARGET OR TEST SYSTEM>
HLA-B*44:02

>  <CLASSIFICATION>
Satisfied

$$$$
>  <SEQUENCE DATA>
KELSPRWYFY

>  <TARGET OR TEST SYSTEM>
HLA-B*44:02

>  <CLASSIFICATION>
Satisfied

$$$$
>  <SEQUENCE DATA>
VELVAEMDG

>  <TARGET OR TEST SYSTEM>
HLA-B*44:02

>  <CLASSIFICATION>
Not satisfied

$$$$

stdin: Criterion: Kd strictly below 90 nM. Is it met by WEIQQVVDA ?
stdout: Not satisfied

stdin: Next entry: AEIRASANLA
stdout: Satisfied

stdin: Likewise for FELTSMKYF ?
stdout: Not satisfied

----------
Recorded Kd for the following sequences
# TARGET OR TEST SYSTEM: HLA-A*11:01
# PROCEDURE TEXT: IEDB peptide-MHC binding, purified MHC/competitive/radioactivity; filed as Kd, often an IC50 or EC50 that approximates it; bounds were set here for any values at or beyond the usual limits of such assays
# COND: source organism: Mammarenavirus lassaense
Your reply should be a number followed by the unit it is expressed in.

>  <SEQUENCE DATA>
SGSCLNNEK

>  <TARGET OR TEST SYSTEM>
HLA-A*11:01

>  <Kd>
0.556 µM

$$$$

Shifting focus to the sequence that follows.
stdin: Requested read-out: Kd. Entry: HSYAGDAAEH
stdout: 17.7 µM

----------
Listed below: pKd values for each entry.
# TARGET OR TEST SYSTEM: HLA-B*40:01
# PROCEDURE TEXT: IEDB peptide-MHC binding, purified MHC/competitive/radioactivity; filed as Kd, often an IC50 or EC50 that approximates it; bounds were set here for any values at or beyond the usual limits of such assays
# COND: source organism: Dengue virus 4 Philippines/H241/1956
pKd is defined as minus the log10 of a concentration measured in mol/L.

>  <SEQUENCE DATA>
SETFSMGLL

>  <TARGET OR TEST SYSTEM>
HLA-B*40:01

>  <ENDPOINT NAME>
pKd

>  <TEST RESULT>
8.45

$$$$

--- query ---
stdin: # get_value(readout='pKd', item= AETQHGTTV )
stdout: 7.68

----------
# TARGET OR TEST SYSTEM: HLA-A*24:03
# PROCEDURE TEXT: IEDB peptide-MHC binding, purified MHC/competitive/fluorescence; filed as Kd, often an IC50 or EC50 that approximates it; bounds were set here for any values at or beyond the usual limits of such assays
# COND: source organism: Escherichia coli 536
ENDPOINT NAME: pKd
FYI, pKd means -log10 of a concentration in mol per litre.

stdin: Find the recorded pKd belonging to QYTRNSFYI and report it.
stdout: 9.52

----------
# TARGET OR TEST SYSTEM: HLA-A*03:01
# PROCEDURE TEXT: IEDB peptide-MHC binding, purified MHC/competitive/fluorescence; bounds were set here for any values at or beyond the usual limits of such assays
# COND: source organism: Vaccinia virus Copenhagen
ENDPOINT NAME: IC50 (µM)
Numbers only here, please. The scale is µM.

stdin: I have this sequence here, TKLYKNKSK , and I need its recorded IC50.
stdout: 44.3

----------
# TARGET OR TEST SYSTEM: HLA-A*30:01
# PROCEDURE TEXT: IEDB peptide-MHC binding, purified MHC/direct/fluorescence; filed as Kd, often an IC50 or EC50 that approximates it; bounds were set here for any values at or beyond the usual limits of such assays
# COND: source organism: Vibrio vulnificus
ENDPOINT NAME: Kd (µM)
# unit: µM | format: bare number

stdin: # input sequence: DAYGFHNYK ; wanted: its Kd
stdout: 1.11

----------
# TARGET OR TEST SYSTEM: HLA-B*15:01
# PROCEDURE TEXT: IEDB peptide-MHC binding, purified MHC/direct/fluorescence; filed as Kd, often an IC50 or EC50 that approximates it; bounds were set here for any values at or beyond the usual limits of such assays
# COND: source organism: Influenza A virus (A/camel/Mongolia/1982(H1N1))
ENDPOINT NAME: Kd

stdin: Endpoint output: Kd of ELDEIGEDV . Value?
stdout: ≥ 20 µM

----------
# TARGET OR TEST SYSTEM: HLA-B*45:06
# PROCEDURE TEXT: IEDB peptide-MHC binding, purified MHC/competitive/fluorescence; filed as Kd, often an IC50 or EC50 that approximates it; bounds were set here for any values at or beyond the usual limits of such assays
# COND: source organism: Mycobacterium tuberculosis variant bovis
ENDPOINT NAME: Kd

stdin: Query (sequence): REAPYELNI ; field requested: Kd
stdout: ≥ 5 µM

----------
# TARGET OR TEST SYSTEM: HLA-B*18:01
# PROCEDURE TEXT: IEDB peptide-MHC binding, purified MHC/competitive/fluorescence; filed as Kd, often an IC50 or EC50 that approximates it; bounds were set here for any values at or beyond the usual limits of such assays
# COND: source organism: Kurkino virus
pKd: −log10 of the molar value.
ENDPOINT NAME: pKd

stdin: What value of measured pKd is listed for WFLYVSQQI ?
stdout: ≤ 4.70

----------
# TARGET OR TEST SYSTEM: HLA-B*39:01
# PROCEDURE TEXT: IEDB peptide-MHC binding, purified MHC/direct/fluorescence; filed as Kd, often an IC50 or EC50 that approximates it; bounds were set here for any values at or beyond the usual limits of such assays
# COND: source organism: Mammarenavirus lassaense
ENDPOINT NAME: Kd

stdin: Returns the measured Kd for the input sequence. Input: KHDEEFCDM
stdout: ≥ 20 µM

----------
# TARGET OR TEST SYSTEM: HLA-A*29:02
# PROCEDURE TEXT: IEDB peptide-MHC binding, purified MHC/competitive/fluorescence; filed as Kd, often an IC50 or EC50 that approximates it; bounds were set here for any values at or beyond the usual limits of such assays
# COND: source organism: Cryptosporidium parvum Iowa II
pKd: −log10 of the molar value.
ENDPOINT NAME: pKd

stdin: Quick check: pKd of VYWENEVSI ?
stdout: ≤ 4.70

----------
# TARGET OR TEST SYSTEM: HLA-A*02:11
# PROCEDURE TEXT: IEDB peptide-MHC binding, purified MHC/direct/fluorescence; filed as Kd, often an IC50 or EC50 that approximates it; bounds were set here for any values at or beyond the usual limits of such assays
# COND: source organism: Zaire ebolavirus
ENDPOINT NAME: Kd

>  <SEQUENCE DATA>
TTIGEWAFW

>  <TARGET OR TEST SYSTEM>
HLA-A*02:11

>  <ENDPOINT NAME>
Kd

>  <TEST RESULT>
≥ 20 µM

$$$$

stdin: Which Kd reading was recorded for the sequence LSDAIFDDL ?
stdout: ≥ 20 µM

Data provenance: the Immune Epitope Database (IEDB)
